Test: TRAIL sensitizers in caspase-8 expressing neuroblastoma cells, dose response, NB7 cells plus caspase-8, luminescence, panel (AID 652002)
Conditions: NB7 neuroblastoma +caspase-8, no TRAIL, compound-alone cytotoxicity counter-screen, luminescence viability, NB7+Caspase-8, run 2; at 12.5 µM (top of the series) unless noted
Entries annotated with measured activity, % sensitization
measureName: activity, % sensitization (%)

| itemSmiles | assayValue |
| --- | --- |
| O=C(Nc1ccc2c(c1)OCCO2)NC1CCCCC1 | 21 |
| O=C(c1cnc(Cl)c(Cl)c1)N1CCN(S(=O)(=O)c2ccc3ccccc3c2)CC1 | -5.02 |
| Cc1cccc2nc(=S)n(C(=O)c3ccco3)n12 | -18.3 |
| CC(C)(C)OC(=O)[C@H](Cc1ccccc1)NC(=O)c1[nH]cnc1C(=O)Nc1ccccc1F | 2.55 |
| Cc1cc(NC(=O)c2cncc(Br)c2)ccc1NC(=O)c1cc2ccccc2o1 | 28.1 |

Hey, just so you know, these numbers are from PubChem BioAssay.
